Biological target: T1, His-tagged mouse B7-H3 (mouse, UniProt Q8VE98 29-244, limits assumed)
T1 construct: Bought His-tagged protein coated on the ELISA plate; also called mu B7-H3; murine B7-H3
T1 sequence (looked up): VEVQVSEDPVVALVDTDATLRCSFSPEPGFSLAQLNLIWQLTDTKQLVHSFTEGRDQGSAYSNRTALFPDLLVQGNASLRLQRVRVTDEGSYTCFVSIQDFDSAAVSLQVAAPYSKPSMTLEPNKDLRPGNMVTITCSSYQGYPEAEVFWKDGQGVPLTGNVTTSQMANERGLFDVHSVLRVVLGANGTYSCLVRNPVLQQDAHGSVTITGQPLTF
Assay: ELISA, coated His-tagged antigen, scFv-Fc 1 ug/ml
reportedEndpoint: ELISA OD450 @ 1 ug/ml (OD450)
One number for each entry, in OD450.

The recorded ELISA OD450 @ 1 ug/ml for entry 40511p1.2.B5 (scFv, V domains shown, Tested as scFv-Fc (Expi293 supernatant)) VH: DVQLVESGGGVVRPGESLRLSCAASGFTFSSYAMSWVRQAPGEGLEWVSSISGSGGSTLYADSVKGRFTISRDSSNNSLYLQMNSLRAEDTAVYYCAKARNNFFDYWGLGTLVTVSS VL: EIVLTQSPGTLTLSPGERATLSCRASRSILTSLAWYQQRPGQTPRLLIYGANSRATGIPDRFSGSGSGTEFTLTISSLQSEDFAVYYCQQYYDWLTITFGGGTKVEIK equals 0.771

Short answer for 40579p1.G1 (scFv, V domains shown, Tested as scFv-Fc (Expi293 supernatant)) VH: EVQLLESGGGLVQPGGSLRLSCAASGFNFSSYWMSWVRQAPGKGLEWVSGISISYGGNAYYADSVKGRFTVSRDNSKNTLYLQMNSLRAEDTAVYYCGRDRSPYQYRSMDVWGQGTTVTVSS VL: EIVLTQSPGTLSLSPGERATLSCRASQSIRSDLAWYQQKPGQAPRLLIYGASSRATGIPARFSGSGSGTEFTLTISSLQSEDFAVYYCQQYNNWPPLTFGGGTKVEIK : ELISA OD450 @ 1 ug/ml was 1.79

Others:
binder 40511p1.1.H10 (scFv, V domains shown, Tested as scFv-Fc (Expi293 supernatant)) VH: DVQLVESGGGVVRPGESLRLSCAASGFTFSNYAMNWVRQAPGEGLEWVSRINYKGYNITYYADSVKGRFTISRDNSKNTLYLQMNSLRAEDTAVYYCAKSGSNSNNFFDYWGLGTLVTVSS VL: EIVLTQSPGNLSLSPGERATLSCRASQSVGSQLGWYQQKPGQAPRLLIYGASTRATGIPDRFSGSGSGTEFALTISSLQSEDFAVYYCQQYYDWPPLTFGGGTKVEIK , ELISA OD450 @ 1 ug/ml observed: 0.138
